Test system: L 929 cells
Experiment: Cytotoxicity on cell cultures (Table 2)
Conditions: culture time 12 hr; 0.5 × 10^-5 M; control 80
Recorded Metric: Cytotoxicity Index (number of cells)

Lookup: Entry O=[N+]([O-])c1ccc(Oc2sccc2[N+](=O)[O-])cc1 [Compound 4] : reported Cytotoxicity Index (number of cells) = ?
Found: 48 number of cells

Lookup: Entry O=[N+]([O-])c1csc([N+](=O)[O-])c1 [Compound 2] : reported Cytotoxicity Index (number of cells) = ?
Found: 68 number of cells

Lookup: Entry O=[N+]([O-])c1cc([N+](=O)[O-])c(I)s1 [Compound 1] : reported Cytotoxicity Index (number of cells) = ?
Found: 42 number of cells

Lookup: Entry CS(=O)(=O)c1cc([N+](=O)[O-])c(I)s1 [Compound 3] : reported Cytotoxicity Index (number of cells) = ?
Found: 35 number of cells

###

Test system: L 929 cells
Assay: Cytotoxicity on cell cultures (Table 2)
Conditions: culture time 6 hr; 0.5 × 10^-5 M; control 62
Recorded Metric: Cytotoxicity Index (number of cells)

Lookup: Entry O=[N+]([O-])c1cc([N+](=O)[O-])c(I)s1 [Compound 1] : reported Cytotoxicity Index (number of cells) = ?
Found: 35 number of cells

Lookup: Entry O=[N+]([O-])c1csc([N+](=O)[O-])c1 [Compound 2] : reported Cytotoxicity Index (number of cells) = ?
Found: 40 number of cells

Lookup: Entry O=[N+]([O-])c1ccc(Oc2sccc2[N+](=O)[O-])cc1 [Compound 4] : reported Cytotoxicity Index (number of cells) = ?
Found: 34 number of cells

Lookup: Entry CS(=O)(=O)c1cc([N+](=O)[O-])c(I)s1 [Compound 3] : reported Cytotoxicity Index (number of cells) = ?
Found: 30 number of cells
